Test system: K562/Adr
Assay: Antiproliferative activity against human K562/ADR cells after 48 hrs by MTT assay
Format: functional, cell-based
ASSAY ENDPOINT: IC50

Task: Request the reported IC50 associated with "CC1=C2CC[C@@](C)(O)[C@@H]2[C@H]2OC(=O)[C@@H](CN(C)C)[C@@H]2CC1.O=C(O)/C=C/C(=O)O"
Result: 3.9 to 16.2 µM

====

Target: Pyruvate kinase PKM (Homo sapiens, UniProt P14618)
Sequence (P14618 whole entry): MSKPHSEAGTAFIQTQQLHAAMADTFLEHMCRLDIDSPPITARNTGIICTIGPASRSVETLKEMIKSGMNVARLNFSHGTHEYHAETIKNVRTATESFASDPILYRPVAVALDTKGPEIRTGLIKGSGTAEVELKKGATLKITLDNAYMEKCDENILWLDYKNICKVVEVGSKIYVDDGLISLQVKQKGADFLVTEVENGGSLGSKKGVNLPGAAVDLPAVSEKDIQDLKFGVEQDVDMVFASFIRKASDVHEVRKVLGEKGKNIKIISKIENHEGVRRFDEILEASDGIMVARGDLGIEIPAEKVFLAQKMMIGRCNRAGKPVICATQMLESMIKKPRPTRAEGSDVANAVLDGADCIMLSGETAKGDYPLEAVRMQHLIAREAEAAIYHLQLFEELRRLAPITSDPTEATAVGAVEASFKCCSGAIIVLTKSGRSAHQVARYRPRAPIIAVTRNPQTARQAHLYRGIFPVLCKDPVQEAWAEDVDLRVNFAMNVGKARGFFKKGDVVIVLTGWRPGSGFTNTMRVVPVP
Test: Irreversible binding affinity to recombinant human PKM2 expressed in Escherichia coli BL21
ASSAY ENDPOINT: Ki (nM)
Report as a plain number; the unit nM is understood.

Task: Request the reported Ki associated with "C=C1C(=O)O[C@H]2[C@H]1CCC(C)=C1CC[C@@](C)(OC(=O)CCCc3cn(CCOCCOCCOCCNC(=O)CCCC[C@H]4SC[C@H]5NC(=O)N[C@H]54)nn3)[C@@H]12"
Result: 50

The measured values listed here are drawn from ChEMBL document CHEMBL4184316.
